# EXPERIMENTAL SYSTEM: Adenosine receptor A2a (Homo sapiens, UniProt P29274)
# Sequence (P29274 whole entry): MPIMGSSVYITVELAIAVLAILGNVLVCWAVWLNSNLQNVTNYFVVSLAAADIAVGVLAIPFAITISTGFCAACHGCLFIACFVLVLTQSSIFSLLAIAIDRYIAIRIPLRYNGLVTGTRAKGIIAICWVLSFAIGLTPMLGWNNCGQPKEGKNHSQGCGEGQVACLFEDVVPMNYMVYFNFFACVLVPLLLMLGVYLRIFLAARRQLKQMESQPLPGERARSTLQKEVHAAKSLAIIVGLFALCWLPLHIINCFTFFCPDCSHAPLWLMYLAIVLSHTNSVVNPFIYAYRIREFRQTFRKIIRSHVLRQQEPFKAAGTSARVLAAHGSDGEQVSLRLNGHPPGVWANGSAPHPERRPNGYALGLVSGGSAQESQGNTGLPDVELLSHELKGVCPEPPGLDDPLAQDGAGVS
# ASSAY REMARKS: Displacement of [3H]NECA from human adenosine A2A receptor expressed in CHO cells at 10 uM
# Assay type: cell-based
OUTCOME MEASURE: inhibition (%)
Report the value in % with no unit label.

C#CCOC(=O)N1Cc2nc(-c3ccc(OC)cc3)nn2-c2cc(C)ccc21	13
COC(=O)N1Cc2nc(-c3ccccc3)nn2-c2cc(C)ccc21	32
CCOC(=O)Nc1ccc(C)cc1-n1cnc(-c2ccc(OC)cc2)n1	13
COc1ccc(-c2ncn(-c3cc(C)ccc3NC(=O)Cc3ccccc3)n2)cc1	1
CCCOC(=O)N1Cc2nc(-c3ccccc3)nn2-c2cc(C)ccc21	56
CCC(=O)N1Cc2nc(-c3ccc(OC)cc3)nn2-c2cc(C)ccc21	6
COc1ccc(-c2nc(NC(=O)c3ccccc3)n(-c3ccccc3)n2)cc1	43
COc1ccc(-c2nc(NC(=O)Nc3ccccc3)n(-c3ccccc3)n2)cc1	7
CCOC(=O)N1Cc2nc(-c3ccccc3)nn2-c2ccccc21	33

With those in mind, consider the next compound.
Entry `COc1ccc(-c2nc(N(C(C)=O)C(C)=O)n(-c3ccccc3)n2)cc1` , Adenosine receptor A2a (Homo sapiens, UniProt P29274) data, inhibition value: 4
